Data credit: patent US12331033B2

pIC50 listing for selected compounds.
system_under_test: SARM1 (ARM-SAM-TIR) (Homo sapiens (Human))
method_description: ARM-SAM-TIR SARM1 IC50 assay (NADase activity, NAD+ cleavage, RapidFire MS)
condition_notes: ARM-SAM-TIR lysate 5 μg/mL, 2 h pre-incubation, 5 μM NAD+, 2 hr room temperature
pIC50: −log10 of the molar value.

IN: # lookup: pIC50 of CC1(c2c(-c3ccnnc3)n[nH]c2NC(=O)CCc2ccc(Cl)cc2)CC1
OUT: > 5.30

Further cases:
IN: Which value of pIC50 has been reported for [2H]C([2H])(C(=O)Nc1nnc(-c2ccnnc2)[nH]1)C([2H])([2H])c1ccc(Cl)nc1 in the records?
OUT: > 5.30

IN: I have this compound here, O=C(NCc1cccc(Cl)c1)Nc1nnc(-c2ccncc2)[nH]1 , and I need its recorded pIC50.
OUT: > 5.30

IN: What does the record list as pIC50 for Cc1c(-c2ccncc2)n[nH]c1NC(=O)c1ccc(-n2ccnn2)cc1 ?
OUT: 4.82 to 5.30

====

Each item that follows carries a reported IC50.
system_under_test: SARM1 (ARM-SAM-TIR) (Homo sapiens (Human), UniProt Q6SZW1)
Sequence (Q6SZW1 other isoform, or with tags, fused parts or gaps): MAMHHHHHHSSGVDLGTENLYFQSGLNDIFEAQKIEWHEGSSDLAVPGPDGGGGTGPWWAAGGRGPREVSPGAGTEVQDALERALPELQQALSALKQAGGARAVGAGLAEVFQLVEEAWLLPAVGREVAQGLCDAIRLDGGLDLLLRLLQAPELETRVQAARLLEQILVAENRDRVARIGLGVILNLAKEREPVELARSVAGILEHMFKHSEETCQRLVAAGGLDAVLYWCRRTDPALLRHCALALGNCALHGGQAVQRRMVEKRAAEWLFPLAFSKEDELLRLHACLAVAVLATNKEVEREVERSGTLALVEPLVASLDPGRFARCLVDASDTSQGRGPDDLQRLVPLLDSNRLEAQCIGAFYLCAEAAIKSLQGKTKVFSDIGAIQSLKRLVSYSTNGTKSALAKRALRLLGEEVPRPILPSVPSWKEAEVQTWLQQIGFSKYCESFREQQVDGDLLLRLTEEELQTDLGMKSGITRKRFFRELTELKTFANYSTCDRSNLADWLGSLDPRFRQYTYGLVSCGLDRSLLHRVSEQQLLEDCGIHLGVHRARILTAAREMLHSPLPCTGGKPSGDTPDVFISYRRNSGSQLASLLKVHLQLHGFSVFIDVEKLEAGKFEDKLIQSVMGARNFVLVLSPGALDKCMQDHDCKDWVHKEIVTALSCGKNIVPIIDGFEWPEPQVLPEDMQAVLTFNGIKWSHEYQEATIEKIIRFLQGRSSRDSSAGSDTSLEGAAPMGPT
method_description: ARM-SAM-TIR SARM1 IC50 assay (NADase activity, NAD+ cleavage, RapidFire MS)
condition_notes: ARM-SAM-TIR lysate 5 μg/mL, 2 h pre-incubation, 5 μM NAD+, 2 hr room temperature

Check out these entries, answers already filled in.
IN: Entry O=C(CC1CCc2ccccc21)Nc1nnc(-c2ccncc2)[nH]1 (stereo not drawn) has what IC50?
OUT: < 5 µM

IN: GET /values?readout=IC50&item= O=C(CCc1ccc(Cl)cc1)Nc1[nH]nc(-c2ccncc2)c1CO
OUT: < 5 µM

IN: I would be grateful if you could share the reported IC50 for O=C(CCc1ccc(Cl)c(Cl)c1)Nc1nnc(-c2ccncc2)[nH]1 .
OUT: < 5 µM

---
IN: May I ask what IC50 has been recorded for O=C(CCc1ccc(OC(F)(F)F)cc1)Nc1nnc(-c2ccncc2)[nH]1 ?
OUT: < 5 µM

IN: Endpoint output: IC50 of NC(=O)Cc1c(-c2ccncc2)n[nH]c1NC(=O)CCc1ccc(Cl)nc1 . Value?
OUT: < 5 µM

IN: I am curious: what IC50 value has been reported for COCc1c(-c2ccncc2)n[nH]c1NC(=O)CCc1ccc(Cl)cc1 ?
OUT: < 5 µM

IN: // IC50 lookup, key: O=C(C[C@H]1CCOc2cc(Cl)ncc21)Nc1nnc(-c2ccncc2)[nH]1 [Example 235]
OUT: 5 to 15 µM

IN: What value of IC50 has been recorded for this entry: O=C(CCc1ccc(Cl)cc1F)Nc1nnc(-c2ccncc2)[nH]1
OUT: < 5 µM

IN: I have this compound here, O=C(CCc1ccc(Cl)cc1)Nc1cc(-c2ccncc2)[nH]n1 , and I need its recorded IC50.
OUT: < 5 µM

IN: // lookup IC50 for N[C@@H](Cc1ccc(Cl)cc1)C(=O)Nc1nnc(-c2ccncc2)[nH]1
OUT: < 5 µM

IN: Using the record for O=C(CCc1ccc(Cl)nc1)Nc1nnc(-c2ccnnc2)[nH]1 , report its IC50.
OUT: < 5 µM

IN: Can you share its IC50? I mean this compound: [2H]C([2H])([2H])c1c(-c2ccncc2)n[nH]c1NC(=O)C([2H])([2H])C([2H])([2H])c1ccc(Cl)nc1
OUT: < 5 µM

IN: Item under review: O=C(Cc1c[nH]c2cc(Cl)ccc12)Nc1nnc(-c2ccncc2)[nH]1 . Reported IC50?
OUT: 5 to 15 µM

IN: Quick check: IC50 of O=C(CC1CCOc2cc(Cl)ccc21)Nc1cc(-c2ccncc2)n[nH]1 (stereo not drawn) ?
OUT: < 5 µM

IN: Which value of IC50 has been reported for CC1(c2c(-c3ccncc3)n[nH]c2NC(=O)CCc2ccc(Cl)cc2)CC1 in the records?
OUT: < 5 µM

IN: Any idea what its IC50 is? The compound is Cc1c(-c2ccncc2F)n[nH]c1NC(=O)CCc1ccc(Cl)s1
OUT: < 5 µM

IN: # get_value(readout='IC50', item= O=C(CCc1ccc(Cl)cc1)Nc1cc(-c2c(F)cncc2Br)n[nH]1 )
OUT: 5 to 15 µM

IN: GET /values?readout=IC50&item= O=C(CCc1c(F)c(F)c(F)c(F)c1F)Nc1nnc(-c2ccncc2)[nH]1
OUT: < 5 µM

IN: Endpoint output: IC50 of O=C(CCc1ccc2ccccc2c1)Nc1nnc(-c2ccncc2)[nH]1 . Value?
OUT: > 30 µM

IN: Field request: IC50 | item: O=C(CCc1ccc(Cl)nc1)Nc1nnc(-c2ccncc2)[nH]1
OUT: < 5 µM

IN: Look up IC50: Cc1c(-c2ccncc2)n[nH]c1NC(=O)CCc1ccc(F)c(F)c1
OUT: < 5 µM
